The reader will find reported IC50 values listed item by item below.
Biological target: human TLR8 (Homo sapiens)
Construct: endogenous in cells; host or cells: primary human monocytes (CD14 microbeads) from buffy coats of healthy donors
Sequence (Q9NR97 27-1041): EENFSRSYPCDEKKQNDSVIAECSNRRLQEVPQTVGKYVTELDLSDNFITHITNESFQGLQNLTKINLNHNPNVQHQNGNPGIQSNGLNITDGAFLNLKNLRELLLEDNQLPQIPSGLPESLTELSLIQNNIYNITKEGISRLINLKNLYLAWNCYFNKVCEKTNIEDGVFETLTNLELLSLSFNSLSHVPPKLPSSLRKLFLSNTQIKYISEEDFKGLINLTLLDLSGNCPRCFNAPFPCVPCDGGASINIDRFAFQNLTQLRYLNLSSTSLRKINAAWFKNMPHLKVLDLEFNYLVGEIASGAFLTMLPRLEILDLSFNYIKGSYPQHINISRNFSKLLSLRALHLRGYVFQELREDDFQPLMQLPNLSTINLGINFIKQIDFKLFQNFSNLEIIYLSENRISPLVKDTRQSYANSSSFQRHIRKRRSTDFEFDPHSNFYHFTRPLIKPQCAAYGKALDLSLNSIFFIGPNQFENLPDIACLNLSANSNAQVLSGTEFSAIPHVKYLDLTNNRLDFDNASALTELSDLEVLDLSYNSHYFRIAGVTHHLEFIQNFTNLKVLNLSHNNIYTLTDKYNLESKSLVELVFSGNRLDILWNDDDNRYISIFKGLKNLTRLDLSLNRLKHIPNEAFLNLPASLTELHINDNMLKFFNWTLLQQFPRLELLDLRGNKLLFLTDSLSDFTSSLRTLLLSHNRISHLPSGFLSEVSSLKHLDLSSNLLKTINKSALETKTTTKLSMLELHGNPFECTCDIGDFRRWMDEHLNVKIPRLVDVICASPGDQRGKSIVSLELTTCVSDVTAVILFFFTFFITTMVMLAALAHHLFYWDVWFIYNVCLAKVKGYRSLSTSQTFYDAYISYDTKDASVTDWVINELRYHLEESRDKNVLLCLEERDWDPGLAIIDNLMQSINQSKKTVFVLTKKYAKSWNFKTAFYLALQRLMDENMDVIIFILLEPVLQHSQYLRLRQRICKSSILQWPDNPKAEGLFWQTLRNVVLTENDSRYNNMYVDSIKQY
Experiment: Inhibition of human TLR8 in human monocytes (TNF-alpha / IL-1 beta ELISA)
Format: cell-based
Settings: human monocytes, agonist ORN8L 100 μg/mL, TNF-alpha readout, 24 hours; read-out: Human TLR8 IC50 TNF-a
Protocol: Example B2—Inhibition of Human TLR8 in Human Monocytes When placed in cell culture, engagement of TLR8 with an agonist leads to expression and release of cytokines into the media. Buffy coats from anonymized, healthy human donors. […] Following isolation of monocytes from buffy coats, human monocytes were plated into 96 well plates at approximately 200,000 cells per well. […] A portion of the media supernatant was analyzed for the presence of TNF-alpha and/or IL-1 beta using ELISA kits. […]
measure-name: IC50

compound: CCN1CCN(C(=O)C2CCN(c3nncc4cn(-c5ccc(C)cc5)nc34)CC2)CC1 [compound 40]
test-target: human TLR8 (Homo sapiens)
measure-name: IC50
val: 0.226 µM
--
compound: CNC(=O)C1CCN(c2nnc(C)c3c(C)n(-c4ccc(C)cc4)nc23)C1 (stereo not drawn) [compound 57]
test-target: human TLR8 (Homo sapiens)
measure-name: IC50
val: ≥ 20 µM
--
compound: Cc1ccc(-c2nc3c(N4CCC(C(=O)NCCCN(C)C)CC4)cccc3n2C)cc1 [Compound No. 53]
test-target: human TLR8 (Homo sapiens)
measure-name: IC50
val: ≥ 20 µM

====

Readings of log10(IC50) for the listed molecules
target: human TLR8 (Homo sapiens); construct: endogenous in cells; host or cells: primary human monocytes (CD14 microbeads) from buffy coats of healthy donors; test: Inhibition of human TLR8 in human monocytes (TNF-alpha / IL-1 beta ELISA); assay type: cell-based; settings: human monocytes, agonist ORN8L 100 μg/mL, TNF-alpha readout, 24 hours; read-out: Human TLR8 IC50 TNF-a
measure-name: log10(IC50) (log10 of the value in nM)

molecule: Cc1ccc(-n2nc3c(N4CCC(C(=O)N5CCC(N(C)Cc6ccccc6)CC5)CC4)nnc(C)c3c2C)cc1
test-target: human TLR8 (Homo sapiens)
val: 2.68

molecule: Cc1nnc(N2CCC(C(=O)N3CCN(C)CC3)CC2)c2nn(-c3ccccc3)c(C)c12 [59x]
test-target: human TLR8 (Homo sapiens)
val: 3.31

molecule: CCN1CCN(C(=O)C2CCN(c3nnc(C)c4c(C)n(-c5ccc(C)cc5)nc34)CC2)CC1 [51x]
test-target: human TLR8 (Homo sapiens)
val: 2.36

molecule: Cc1ccc(-n2nc3c(N4CCC(CCC(=O)NCCN(C)C)CC4)nnc(C)c3c2C)cc1
test-target: human TLR8 (Homo sapiens)
val: 3.09

molecule: CCCCN(CC)CCNC(=O)C1CCN(c2nnc(C)c3c(C)n(-c4ccccc4)nc23)CC1 [25x]
test-target: human TLR8 (Homo sapiens)
val: 3.69

====

molecular target: human TLR8 (Homo sapiens); construct: endogenous in cells; host or cells: primary human monocytes (CD14 microbeads) from buffy coats of healthy donors; assay: Inhibition of human TLR8 in human monocytes (TNF-alpha / IL-1 beta ELISA); assay type: cell-based; conditions: human monocytes, agonist ORN8L 100 μg/mL, IL-1 beta readout, 24 hours; read-out: Human TLR8 IC50 IL-1b

compound: Cc1ccc(-n2nc3c(N4CCC(C(=O)NC5CN(C)C5)CC4)nnc(C)c3c2C)cc1
IC50: > 10 µM
--
compound: CCN(CC)CCCNC(=O)C1CCN(c2nnc(C)c3c(C)n(-c4ccc(OC)cc4)nc23)CC1
IC50: > 10 µM
--
compound: CCN(CC)CCCNC(=O)C1CCN(c2nnc(C)c3c(C)n(-c4ccccc4)nc23)CC1
IC50: > 10 µM
--
compound: Cc1ccc(-n2nc3c(N4CCC(C(=O)NCCCCCc5ccccc5)CC4)nnc(C)c3c2C)cc1
IC50: > 10 µM
--
compound: Cc1ccc(-n2nc3c(N4CCC(C(=O)NCCCN(C)C)CC4)nnc(C)c3c2C)cc1
IC50: > 10 µM
--
compound: Cc1ccc(-n2nc3c(N4CCC(C(=O)NC5CCN(C)C5)CC4)nnc(C)c3c2C)cc1 (centres unmarked)
IC50: > 10 µM
--
compound: Cc1ccc(-n2cc3cnnc(N4CCC(C(=O)NCCCN(C)C)CC4)c3n2)cc1
IC50: 1.61 µM
--
compound: CCN(CC)CCNC(=O)C1CCN(c2nnc(C)c3c(C)n(-c4ccc(C)cc4)nc23)CC1 [20x]
IC50: 5.04 µM

====

target: human TLR8 (Homo sapiens); construct: endogenous in cells; host or cells: primary human monocytes (CD14 microbeads) from buffy coats of healthy donors; assay: Inhibition of human TLR8 in human monocytes (TNF-alpha / IL-1 beta ELISA); assay type: cell-based; settings: human monocytes, agonist ORN8L 100 μg/mL, TNF-alpha readout, 24 hours; read-out: Human TLR8 IC50 TNF-a

compound: Cc1ccc(-n2nc3c(N4CCC(C(=O)NCCCN5CCOCC5)CC4)nnc(C)c3c2C)cc1 [Compound No. 19x]
units-text: µM
operator-symbol: =
IC50: 0.74
//
compound: Cc1ccc(-n2nc3c(N4CCC(C(=O)NCCCN(C)C)CC4)nnc(C)c3c2-c2ccccc2)cc1
units-text: µM
operator-symbol: ≥
IC50: 20
//
compound: Cc1ccc(-n2nc3c(N4CCC(C(=O)N5CC6CN(C)CC6C5)CC4)nnc(C)c3c2C)cc1 (stereo not shown)
units-text: µM
operator-symbol: =
IC50: 9.17
//
compound: CCN(CC)C1CCN(C(=O)C2CCN(c3nncc4cn(-c5ccc(C)cc5)nc34)CC2)CC1
units-text: µM
operator-symbol: =
IC50: 0.77

====

Target: human TLR9 (Homo sapiens)
Construct: endogenous in cells; host or cells: primary human B cells (CD19 microbeads) from buffy coats of healthy donors
Sequence (Q9NR96 26-1032): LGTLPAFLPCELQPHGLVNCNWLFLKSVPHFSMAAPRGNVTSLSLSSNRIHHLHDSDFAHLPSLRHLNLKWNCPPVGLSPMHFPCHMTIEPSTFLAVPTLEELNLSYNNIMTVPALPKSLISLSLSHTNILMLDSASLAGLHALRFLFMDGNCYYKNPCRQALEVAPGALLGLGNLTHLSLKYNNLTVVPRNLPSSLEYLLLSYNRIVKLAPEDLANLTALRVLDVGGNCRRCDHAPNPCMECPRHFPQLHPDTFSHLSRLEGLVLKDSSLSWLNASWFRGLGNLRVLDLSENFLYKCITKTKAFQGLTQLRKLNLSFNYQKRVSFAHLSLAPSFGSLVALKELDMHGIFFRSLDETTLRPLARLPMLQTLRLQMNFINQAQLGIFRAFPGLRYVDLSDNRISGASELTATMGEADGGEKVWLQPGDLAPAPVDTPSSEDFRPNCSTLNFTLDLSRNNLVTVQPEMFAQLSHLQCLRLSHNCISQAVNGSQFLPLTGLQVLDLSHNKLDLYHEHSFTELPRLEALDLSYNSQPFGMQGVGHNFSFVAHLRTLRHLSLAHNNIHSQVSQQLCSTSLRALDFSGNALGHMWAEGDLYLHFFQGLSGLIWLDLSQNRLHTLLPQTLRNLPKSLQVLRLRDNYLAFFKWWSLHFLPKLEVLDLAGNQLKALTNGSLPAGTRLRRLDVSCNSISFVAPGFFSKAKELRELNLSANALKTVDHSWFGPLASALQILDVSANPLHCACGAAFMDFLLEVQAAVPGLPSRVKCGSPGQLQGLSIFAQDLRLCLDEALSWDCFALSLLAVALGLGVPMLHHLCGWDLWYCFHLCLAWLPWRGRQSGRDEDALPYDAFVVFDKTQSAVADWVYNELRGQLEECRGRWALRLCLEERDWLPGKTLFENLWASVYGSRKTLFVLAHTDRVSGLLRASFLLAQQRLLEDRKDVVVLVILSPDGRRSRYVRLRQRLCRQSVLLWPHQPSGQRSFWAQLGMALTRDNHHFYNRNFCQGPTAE
Experiment: Inhibition of human TLR9 in human B cells (IL-6 ELISA)
Type: cell-based
Details: human B cells, agonist 1018 ISS 1 μM, IL-6 readout, 48 hours; range about 0.01 to 10 μM; read-out: Human TLR9 IC50
criterion met if IC50 is below 100 nM. criterion not met if not; exact matches included in criterion not met.

compound: Cc1ccc(-n2nc3c(N4CCC(C(=O)NC5CN(C)C5)CC4)nnc(C)c3c2C)cc1 [Compound No. 3]
assigned-label: criterion not met
//
compound: Cc1ccc(-n2nc3c(N4CCC(CCC(=O)NCCN(C)C)CC4)nnc(C)c3c2C)cc1 [Compound No. 9]
assigned-label: criterion met
//
compound: Cc1ccc(-n2nc3c(N4CCC(C(=O)NCCCc5c[nH]cn5)CC4)nnc(C)c3c2C)cc1 [Compound No. 6]
assigned-label: criterion not met
//
compound: Cc1nnc(N2CCC(C(=O)NCCCN(C)C)CC2)c2nn(-c3ccsc3)c(C)c12 [compound 24]
assigned-label: criterion not met
//
compound: Cc1ccc(-n2nc3c(N4CCN(C(=O)NCCCN(C)C)CC4)nnc(C)c3c2C)cc1 [Compound No. 76]
assigned-label: criterion not met
//
compound: Cc1ccc(-n2nc3c(N4CCC(C(=O)N5CCOCC5)CC4)nnc(C)c3c2C)cc1 [2-3]
assigned-label: criterion not met
//
compound: Cc1ccc(-n2nc3c(N4CCC(C(=O)NCCCCN(C)C)CC4)nnc(C)c3c2C)cc1 [compound 31]
assigned-label: criterion met
//
compound: Cc1nnc(N2CCC(C(=O)N3CCN(C)CC3)CC2)c2nn(-c3ccccc3)c(C)c12 [59x]
assigned-label: criterion met

Sourced from patent US11370794B2
